system: MCF10A; assay: one-nucleolus phenotype percent effect (relative to siNT 0% and siNOL11 100%); higher = more cells with one nucleolus (ribosome biogenesis inhibition); conditions: 20 nM; 72 h
reportedEndpoint: one-nucleolus phenotype percent effect
Quote the value and follow it with the unit of measurement.

Use these answered entries as a reference point.
# seq, targetOfAssay, reportedResult
records = [
    ("UCGAGGACUGGUGGAAGGGCCUU [hsa-miR-3131]", "MCF10A", "8.15%"),
    ("AGCAUACACCUGUAGUCCUAGA [hsa-miR-5689]", "MCF10A", "0.904%"),
    ("AUGGAGAAGGCUUCUGA [hsa-miR-4531]", "MCF10A", "56.1%"),
    ("AGGAGGAAUUGGUGCUGGUCUU [hsa-miR-766-5p]", "MCF10A", "33.8%"),
    ("UUCUAGAUGAGAGAUAUAUAUA [hsa-miR-4777-5p]", "MCF10A", "29.8%"),
    ("GGUGAGGCUAGCUGGUG [hsa-miR-4316]", "MCF10A", "13.5%"),
    ("AGUAUUCUGUACCAGGGAAGGU [hsa-miR-630]", "MCF10A", "-15.1%"),
    ("GUGGGCUGGGCUGGGCUGGGCC [hsa-miR-3620-5p]", "MCF10A", "27.5%"),
    ("UUCGCCACUUCCCUCCCUGCAG [hsa-miR-6788-3p]", "MCF10A", "-13.9%"),
    ("AGAGUCGGCGACGCCGCCAGC [hsa-miR-4785]", "MCF10A", "25.1%"),
]

// query What measured one-nucleolus phenotype percent effect goes with UCAGGCUCAGUCCCCUCCCGAU [hsa-miR-484] ?
// result -7.07%

// query What measured one-nucleolus phenotype percent effect goes with UUAGGCCGCAGAUCUGGGUGA [hsa-miR-1295a] ?
// result 8.73%
